test system: CAF#7 (primary prostate cancer-associated fibroblasts of myCAF-like type); experiment: drug sensitivity score (DSS2, normalised partial AUC of dose-response, 72 h CellTiter-Glo viability) (DSS (dimensionless)); higher = more sensitive (stronger growth inhibition / cytotoxicity); extreme values may be limits of the assay
Measurement label: drug sensitivity score
Number only, no unit.

// worked examples, drug sensitivity score included
1) C=CC[C@@H]1/C=C(\C)C[C@H](C)C[C@H](OC)[C@H]2O[C@@](O)(C(=O)C(=O)N3CCCC[C@H]3C(=O)O[C@H](/C(C)=C/[C@@H]3CC[C@@H](O)[C@H](OC)C3)[C@H](C)[C@@H](O)CC1=O)[C@H](C)C[C@@H]2OC [Tacrolimus] (tested concentration range 1-10000 nM)    2
2) CON(C)C(=O)N1N=C(c2cc(F)ccc2F)S[C@@]1(CCCN)c1ccccc1 [Filanesib] (tested concentration range 0.1-1000 nM)    2.6

# drug sensitivity score (compound: CC[C@]12C=CCN3CC[C@@]4(c5cc([C@@]6(C(=O)OC)C[C@@H]7C[C@@H](C(C)(F)F)CN(Cc8c6[nH]c6ccccc86)C7)c(OC)cc5N(C)[C@H]4[C@@](O)(C(=O)OC)[C@@H]1OC(C)=O)[C@@H]32 [Vinflunine] (tested concentration range 0.1-1000 nM) ) is 4.4

# drug sensitivity score (compound: CCCS(=O)(=O)Nc1ccc(F)c(C(=O)c2c[nH]c3ncc(-c4ccc(Cl)cc4)cc23)c1F [Vemurafenib] (tested concentration range 1-10000 nM) ) is 1.6

# drug sensitivity score (compound: CC(C)Oc1ccc(C(=O)N[C@H](CNC(=O)CN(C)C)Cc2ccc(-c3cn4cccc([C@H](C)O)c4n3)cc2)cc1Cl (tested concentration range 1-10000 nM) ) is 2.4

----------
Each entry below lists one item and its recorded drug sensitivity score value.
test system: CAF#5 (primary prostate cancer-associated fibroblasts of myCAF-like type); assay: drug sensitivity score (DSS2, normalised partial AUC of dose-response, 72 h CellTiter-Glo viability) (DSS (dimensionless)); higher = more sensitive (stronger growth inhibition / cytotoxicity); extreme values may be limits of the assay
Number only, no unit.

# drug sensitivity score (molecule: NCC(=O)Nc1ccc(-n2nc(C(F)(F)F)cc2-c2ccc3c(ccc4ccccc43)c2)cc1 (tested concentration range 2.5-25000 nM) ) is 0

# drug sensitivity score (molecule: C[C@@H]1C[C@H]2[C@@H]3CCC4=CC(=O)C=C[C@]4(C)[C@@]3(F)[C@@H](O)C[C@]2(C)[C@@]1(O)C(=O)CO [Dexamethasone] (tested concentration range 1-10000 nM) ) is 0

# drug sensitivity score (molecule: COC(=O)C[C@](O)(CCCC(C)(C)O)C(=O)O[C@@H]1C(OC)=C[C@]23CCCN2CCc2cc4c(cc2[C@H]13)OCO4 [Omacetaxine] (tested concentration range 1-10000 nM) ) is 18.7

----------
test system: CAF#4 (primary prostate cancer-associated fibroblasts of iCAF-like type); test: drug sensitivity score (DSS2, normalised partial AUC of dose-response, 72 h CellTiter-Glo viability) (DSS (dimensionless)); higher = more sensitive (stronger growth inhibition / cytotoxicity); extreme values may be limits of the assay
Label 0.0 if drug sensitivity score falls below 2; label 1.0 in every other case.

Example results:
1) NC(=O)c1cccc2cn(-c3ccc([C@@H]4CCCNC4)cc3)nc12 [Niraparib] (tested concentration range 1-10000 nM)    1.0
2) CCc1cc2c(cc1N1CCC(N3CCOCC3)CC1)C(C)(C)c1[nH]c3cc(C#N)ccc3c1C2=O [Alectinib] (tested concentration range 0.1-1000 nM)    0.0
3) CCN(CC)CCOc1ccc(C(=C(Cl)c2ccccc2)c2ccccc2)cc1 [Clomifene] (tested concentration range 1-10000 nM)    1.0
4) Cc1nc2cccc(N)c2c(=O)n1C1CCC(=O)NC1=O (configuration not stated) [Avadomide] (tested concentration range 1-10000 nM)    1.0

Is drug sensitivity score at least 2? Consider COc1nc(N)nc2c1ncn2[C@@H]1O[C@H](CO)[C@@H](O)[C@@H]1O [Nelarabine] (tested concentration range 1-10000 nM) 0.0

Is drug sensitivity score at least 2? Consider Cc1c(N)nc([C@H](CC(N)=O)NC[C@H](N)C(N)=O)nc1C(=O)N[C@H](C(=O)N[C@H](C)[C@@H](O)[C@H](C)C(=O)N[C@H](C(=O)NCCc1nc(-c2nc(C(=O)NCCC[S+](C)C)cs2)cs1)[C@@H](C)O)[C@@H](OC1OC(CO)C(O)C(O)C1OC1OC(CO)C(O)C(OC(N)=O)C1O)c1cnc[nH]1 (some centres not stated) [Bleomycin] (tested concentration range 1-10000 nM) 1.0

Is drug sensitivity score at least 2? Consider Cc1nc(NC(=O)N2CCC[C@H]2C(N)=O)sc1-c1ccnc(C(C)(C)C(F)(F)F)c1 [Alpelisib] (tested concentration range 0.2-2500 nM) 1.0

Is drug sensitivity score at least 2? Consider N#CC[C@H](C1CCCC1)n1cc(-c2ncnc3[nH]ccc23)cn1 [Ruxolitinib] (tested concentration range 1-10000 nM) 0.0

Is drug sensitivity score at least 2? Consider CO[C@@H]1[C@H](N(C)C(=O)c2ccccc2)C[C@H]2O[C@]1(C)n1c3ccccc3c3c4c(c5c6ccccc6n2c5c31)C(=O)NC4 [Midostaurin] (tested concentration range 1-10000 nM) 1.0

Is drug sensitivity score at least 2? Consider CC(=O)c1cc2c(o1)C(=O)c1ccccc1C2=O [Napabucasin] (tested concentration range 2-20000 nM) 1.0

Is drug sensitivity score at least 2? Consider CCOCc1nc2c(N)nc3ccccc3c2n1CC(C)(C)O [Resiquimod] (tested concentration range 1-10000 nM) 0.0

----------
tested on: CAF#2 (primary prostate cancer-associated fibroblasts of iCAF-like type); experiment: drug sensitivity score (DSS2, normalised partial AUC of dose-response, 72 h CellTiter-Glo viability) (DSS (dimensionless)); higher = more sensitive (stronger growth inhibition / cytotoxicity); extreme values may be limits of the assay
Please use the following drug sensitivity score ranges when assigning a class: c1 (below 0.6), c2 (0.6 to below 5), c3 (5 or more)

1. Nc1ncn([C@@H]2O[C@H](CO)[C@@H](O)[C@H]2O)c(=O)n1 [Azacitidine] (tested concentration range 1-10000 nM)    c2
2. NCC(=O)Nc1ccc(-n2nc(C(F)(F)F)cc2-c2ccc3c(ccc4ccccc43)c2)cc1 (tested concentration range 2.5-25000 nM)    c1
3. Cc1c2oc3c(C)ccc(C(=O)N[C@@H]4C(=O)N[C@H](C(C)C)C(=O)N5CCC[C@H]5C(=O)N(C)CC(=O)N(C)[C@@H](C(C)C)C(=O)O[C@@H]4C)c3nc-2c(C(=O)N[C@@H]2C(=O)N[C@H](C(C)C)C(=O)N3CCC[C@H]3C(=O)N(C)CC(=O)N(C)[C@@H](C(C)C)C(=O)O[C@@H]2C)c(N)c1=O [Dactinomycin] (tested concentration range 0.1-1000 nM)    c3
4. Cc1c(-c2ccc(N3CCc4cccc(C(=O)Nc5nc6ccccc6s5)c4C3)nc2C(=O)O)cnn1CC12CC3CC(CC(C3)C1)C2 (tested concentration range 0.1-1000 nM)    c1
5. COc1cc2ncnc(Nc3ccc(F)c(Cl)c3)c2cc1NC(=O)/C=C/CN1CCCCC1 [Dacomitinib] (tested concentration range 0.1-1000 nM)    c2
6. COc1cc(Nc2c(C#N)cnc3cc(OCCCN4CCN(C)CC4)c(OC)cc23)c(Cl)cc1Cl [Bosutinib] (tested concentration range 1-10000 nM)    c3

Sort CO[C@H]1C[C@@H]2CC[C@@H](C)[C@@](O)(O2)C(=O)C(=O)N2CCCC[C@H]2C(=O)O[C@H]([C@H](C)C[C@@H]2CC[C@@H](OCCO)[C@H](OC)C2)CC(=O)[C@H](C)/C=C(\C)[C@@H](O)[C@@H](OC)C(=O)[C@H](C)C[C@H](C)/C=C/C=C/C=C/1C [Everolimus] (tested concentration range 0-100 nM) into one of the categories. c3

Sort CCOCc1nc2c(N)nc3ccccc3c2n1CC(C)(C)O [Resiquimod] (tested concentration range 1-10000 nM) into one of the categories. c1

----------
system: CAF#4; experiment: drug sensitivity score (DSS2, normalised partial AUC of dose-response, 72 h CellTiter-Glo viability) (DSS (dimensionless)); higher = more sensitive (stronger growth inhibition / cytotoxicity); extreme values may be limits of the assay
Label n if drug sensitivity score falls below 2; label y in every other case.

Example results:
1) CCCCc1nc2cc(/C=C/C(=O)NO)ccc2n1CCN(CC)CC [Pracinostat] (tested concentration range 1-10000 nM)    y
2) CC(C)n1cnc2c(NCCc3ccc(O)cc3)nc(-c3csc4ccccc34)nc21 [StemRegenin 1] (tested concentration range 1-10000 nM)    y
3) COCCNCc1ccc(-c2cc3nccc(Oc4ccc(NC(=S)NC(=O)Cc5ccc(F)cc5)cc4F)c3s2)nc1 [Glesatinib] (tested concentration range 0.2-2500 nM)    y
4) O=C(O)c1ccc(-c2c[nH]c3ncc(-c4ccccc4)cc23)cc1C1CCCC1 (tested concentration range 1-10000 nM)    n
5) N#CC1(c2ccc(NC(=O)c3cccnc3NCc3ccncc3)cc2)CCCC1 [Apatinib] (tested concentration range 1-10000 nM)    n
6) CO[C@@]12[C@H](COC(N)=O)C3=C(C(=O)C(C)=C(N)C3=O)N1C[C@@H]1N[C@@H]12 [Mitomycin C] (tested concentration range 1-10000 nM)    n
7) COc1cc(C)c(/C=C/C(C)=C/C=C/C(C)=C/C(=O)O)c(C)c1C [Acitretin] (tested concentration range 1-10000 nM)    n
8) O=C1CCC(N2C(=O)c3ccccc3C2=O)C(=O)N1 (configuration not stated) [Thalidomide] (tested concentration range 1-10000 nM)    n
9) COC(=O)c1ccc2c(c1)[nH]c1ncnc(NCCCN3CCCCC3)c12 [UM729] (tested concentration range 1-10000 nM)    n
10) Cc1cn(-c2cc(NC(=O)c3ccc(C)c(Nc4nccc(-c5cccnc5)n4)c3)cc(C(F)(F)F)c2)cn1 [Nilotinib] (tested concentration range 1-10000 nM)    n

Is drug sensitivity score at least 2? Consider O=C(/C=C\n1cnc(-c2cc(C(F)(F)F)cc(C(F)(F)F)c2)n1)NNc1cnccn1 [Selinexor] (tested concentration range 1-10000 nM) y

Is drug sensitivity score at least 2? Consider CN(C)C(=O)c1cc2cnc(Nc3ccc(N4CCNCC4)cn3)nc2n1C1CCCC1 [Ribociclib] (tested concentration range 1-10000 nM) y
